Ref: the supplement of paper PMC10567573

B1: ALKBH7 (parent)
chain: SVICRSLPEGMGPGESGQPPPAC

variants of: B1; test: protein stability index of a GFP-peptide fusion (GPS, HEK-293T) (PSI 1-6); higher = more stable; settings: c terminus: native;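 further: lentivirally expressed fusions sorted by FACS into six bins by GFP to DsRed ratio, PSI derived from sequencing read proportions per bin multiplied by bin number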
Endpoint: protein stability index
Reply with just the number.

Variant String	protein stability index
P20T	2.08
C4D	1.58
E15I	2.1
V2D	2.05

Returns the measured protein stability index for the input variant. Input: `S16V`
3.02

Give the measured protein stability index of `G10L` .
1.51

What protein stability index value was documented for this variant, `P20Y` ?
3.31

Any idea what protein stability index was measured for `P13Y` ?
1.74
